- Tested on: SR leukemia
- method_description: NCI tumour cell line growth inhibition, 48 h
log10 TGI: recorded values
Form field - Quantity: TGI; Unit: µM; Scale: log10

In [3]: df
Out[3]:
                                   compound  test_system  numeric_result
0  CCOC(=O)Oc1ccc2c(c1)c(=O)c1c(NCCN(CC)CC)ccc3nnn2c31  SR leukemia            1.11
1  CC1CC(=O)N(N(C)C)C(C#N)(C#N)C1(C#N)C#N (stereo unspecified)  SR leukemia            1.49
2  CC1C(c2ccc(Cl)cc2)c2cc3c(cc2OC1N1CCOCC1)OCO3 (stereo unspecified)  SR leukemia            1.25

**Query** Kindly state the measured log10 TGI obtained for CCC(=O)c1c(C(F)(F)F)n([O-])c2cc(F)c(F)cc2[n+]1=O with SR leukemia.
**Result** -0.58

**Query** Short answer please: log10 TGI, SR leukemia, entry NC(=S)c1c(N)n(C2OC(CO)C(O)C2O)c2ncnc(N)c12 (stereo unspecified)
**Result** -0.39

**Query** Give recorded log10 TGI with SR leukemia for the following compound: NS(=O)(=O)OCCCCCCCOS(N)(=O)=O
**Result** 2.96

**Query** Enter reported log10 TGI observed with SR leukemia for COc1cc2nc3cc([N+](=O)[O-])ccc3c(NCCNCC(C)(C)O)c2cc1OC
**Result** 0.48

**Query** Form field - read-out: log10 TGI; system: SR leukemia; submitted item: Nc1ncnc2c1ncn2C1CC(OCc2ccccc2[N+](=O)[O-])C(CO)O1 (stereo unspecified)
**Result** 1.54

**Query** Write down the reported log10 TGI of CN(C)CCNC(=O)c1cccc2c1Oc1c(cccc1[N+](=O)[O-])O2 , test system: SR leukemia.
**Result** 1.19

Values from PubChem BioAssay (NCI)
